Test system: Bacillus subtilis
protocol.details: Antibacterial activity against Bacillus subtilis ATCC 6633 after 16 to 48 hrs
Type: functional
reported.metric: MIC (µM)

(P) COC(=O)c1cc2cc3c(c(O)c2c(=O)o1)O[C@]1(CC3)Cc2c(O)c3c(c(O)c2O1)C(=O)C(OC)=CC3=O
(Q) COC(=O)c1cc2cc3c(c(O)c2c(=O)o1)O[C@]1(CC3)CC2=C(O1)C(=O)c1c(O)c(OC)cc(OC)c1C2=O
Between item P and item Q , which reported MIC is smaller? In your reply, give the label of the chosen option.
P

----------
Test system: Bacillus subtilis
protocol.details: Antibacterial activity against Bacillus subtilis ATCC 6633 after 16 to 48 hrs
Format: functional
reported.metric: MIC

• Cc1cc(=O)[nH]c2c(O)c3c(cc12)c(CO)cc(=O)n3C = > 24 µM
• Cc1cc(=O)[nH]c2c1C(=O)c1c(C)cc(=O)n(C)c1C2=O = 12 µM

Continue with the next compound.
Recorded MIC (compound Cc1cc(=O)n2c3c(c4c(cc13)c(C(=O)O)cc(=O)n4C)OC2 ): > 24 µM

Reference for the values: ChEMBL document CHEMBL4414678
